# Study Target: UniProt:P0DTD1
# Test Name: Mode-of-action assay (incubation-dependent potency, covalent/noncovalent)
# Format: biochemical
# Particulars: 10 min after the activation of the reaction; read-out: IC50 at time-point

Mol Smiles | IC50 / nM
CCOC(=O)/C(O)=C/C(=O)/C=C/c1cn(-c2ccc(C(F)(F)F)cc2)c2ccccc12 | 790

---

# System: SARS-CoV-2
# Test Name: SARS-CoV-2 plaque assay in infected Vero E6 cells
# Type: cell-based

Mol Smiles | SI = CC50/EC50
CC(C)c1ccc(-n2cc(/C=C/C(=O)/C=C(\O)C(=O)O)c3ccccc32)cc1 | >47
CC(C)c1ccc(-n2cc(C(=O)/C=C(\O)C(=O)O)c3ccccc32)cc1 | >12
CCOC(=O)/C(O)=C/C(=O)/C=C/c1cn(-c2ccc(Cl)cc2)c2ccccc12 | >12
O=C(/C=C(\O)C(=O)O)/C=C/c1cn(-c2ccc(C(F)(F)F)cc2)c2ccccc12 | >21
CCOC(=O)/C(O)=C/C(=O)/C=C/c1cn(-c2ccc(C(F)(F)F)cc2)c2ccccc12 | >21
CCOC(=O)/C(O)=C/C(=O)/C=C/c1cn(-c2ccc(C#N)cc2)c2ccccc12 | >8

---

# Study Target: SARS-CoV-2 nsp13 (Severe acute respiratory syndrome coronavirus 2, UniProt P0DTD1)
# Test Name: SARS-CoV-2 nsp13 unwinding-associated activity assay
# Format: biochemical
# Particulars: SARS-CoV-2 nsp13-associated unwinding activity; means ± SD from two experiments in triplicate; read-out: Activity in enzyme assay IC50 Unwinding BSA-TCEP
pIC50: −log10 of the molar value.
Observable: pIC50

Mol Smiles | Readout Number
CCOC(=O)/C(O)=C/C(=O)/C=C/c1cn(-c2ccc(OC)cc2)c2ccccc12 | 5.12
CCOC(=O)/C(O)=C/C(=O)/C=C/c1cn(-c2ccc(C#N)cc2)c2ccccc12 | 5.20
CC(C)c1ccc(-n2cc(C(=O)/C=C(\O)C(=O)O)c3ccccc32)cc1 | 6.15
O=C(/C=C(\O)C(=O)O)/C=C/c1cn(-c2ccc(C(F)(F)F)cc2)c2ccccc12 | 6.68
CCOC(=O)/C(O)=C/C(=O)c1cn(-c2ccc(C(C)C)cc2)c2ccccc12 | 5.09
O=C(O)/C(O)=C/C(=O)c1cn(-c2ccc(F)cc2)c2ccccc12 | 5.15
Cc1ccc(-n2cc(/C=C/C(=O)/C=C(\O)C(=O)O)c3ccccc32)cc1 | 4.93
Cc1ccc(-n2cc(C(=O)/C=C(\O)C(=O)O)c3ccccc32)cc1 | 5.90

---

Reported CC50 values for a set of molecules
# Test Name: in vitro
# Particulars: African green monkey

Molecule | CC50
CC[C@@]1(O)C(=O)OCc2c1cc1n(c2=O)Cc2cc3ccccc3nc2-1 [Camptothecin, reference compound] | 11.1 µM
CCOC(=O)/C(O)=C/C(=O)/C=C/c1cn(-c2ccc(C(F)(F)F)cc2)c2ccccc12 | > 100 µM
CCOC(=O)/C(O)=C/C(=O)/C=C/c1cn(-c2ccc(Cl)cc2)c2ccccc12 | > 100 µM

---

# Study Target: UniProt P0DTD1
# Test Name: Mode-of-action assay (incubation-dependent potency, covalent/noncovalent)
# Type: biochemical
# Particulars: 1 min after the activation of the reaction; read-out: IC50 at time-point
pIC50: −log10 of the molar value.

Mol Smiles | pIC50
CCOC(=O)/C(O)=C/C(=O)/C=C/c1cn(-c2ccc(C(F)(F)F)cc2)c2ccccc12 | 6.52

---

# Study Target: UniProt P0DTD1
# Test Name: Mode-of-action assay (incubation-dependent potency, covalent/noncovalent)
# Assay type: biochemical
# Particulars: 15 min after the activation of the reaction; read-out: IC50 at time-point
pIC50: −log10 of the molar value.

Mol Smiles | pIC50
CCOC(=O)/C(O)=C/C(=O)/C=C/c1cn(-c2ccc(C(F)(F)F)cc2)c2ccccc12 | 5.97

---

# Study Target: SARS-CoV-2 nsp13 (Severe acute respiratory syndrome coronavirus 2, UniProt P0DTD1)
# Test Name: SARS-CoV-2 nsp13 ATPase-associated activity assay
# Format: biochemical
# Particulars: SARS-CoV-2 nsp13-associated ATPase activity; means ± SD from two experiments in triplicate; read-out: Activity in enzyme assay IC50 ATPase BSA-TCEP
Met if IC50 is below 10 µM. Not met if not; exact matches included in Not met.

Mol Smiles | Assigned Category
COc1ccc(-n2cc(/C=C/C(=O)/C=C(\O)C(=O)O)c3ccccc32)cc1 | Not met
CC(C)c1ccc(-n2cc(C(=O)/C=C(\O)C(=O)O)c3ccccc32)cc1 | Not met
CCOC(=O)/C(O)=C/C(=O)/C=C/c1cn(-c2ccccc2)c2ccccc12 | Met
CC(C)c1ccc(-n2cc(/C=C/C(=O)/C=C(\O)C(=O)O)c3ccccc32)cc1 | Met
CCOC(=O)/C(O)=C/C(=O)c1cn(-c2ccc(C(C)C)cc2)c2ccccc12 | Not met
CCOC(=O)/C(O)=C/C(=O)/C=C/c1cn(-c2ccc(C(C)C)cc2)c2ccccc12 | Not met
Cc1ccc(-n2cc(C(=O)/C=C(\O)C(=O)O)c3ccccc32)cc1 | Not met
O=C(/C=C(\O)C(=O)O)/C=C/c1cn(-c2ccc(C(F)(F)F)cc2)c2ccccc12 | Not met
O=C(/C=C(\O)C(=O)O)/C=C/c1cn(-c2ccc(Cl)cc2)c2ccccc12 | Not met
O=C(/C=C(\O)C(=O)O)/C=C/c1cn(-c2ccccc2)c2ccccc12 | Not met
O=C(O)/C(O)=C/C(=O)c1cn(-c2ccc(F)cc2)c2ccccc12 | Not met
O=C(O)/C(O)=C/C(=O)c1cn(-c2ccccc2)c2ccccc12 | Not met
CCOC(=O)/C(O)=C/C(=O)/C=C/c1cn(-c2ccc(C#N)cc2)c2ccccc12 | Met
CCOC(=O)/C(O)=C/C(=O)c1cn(-c2ccccc2)c2ccccc12 | Not met
Cc1ccc(-n2cc(/C=C/C(=O)/C=C(\O)C(=O)O)c3ccccc32)cc1 | Met
CCOC(=O)/C(O)=C/C(=O)c1cn(-c2ccc(OC)cc2)c2ccccc12 | Not met
N#Cc1ccc(-n2cc(/C=C/C(=O)/C=C(\O)C(=O)O)c3ccccc32)cc1 | Not met

---

# Study Target: SARS-CoV-2 nsp13 (Severe acute respiratory syndrome coronavirus 2, UniProt P0DTD1)
# Test Name: SARS-CoV-2 nsp13 ATPase-associated activity assay
# Assay type: biochemical
# Particulars: SARS-CoV-2 nsp13-associated ATPase activity; means ± SD from two experiments in triplicate; read-out: Activity in enzyme assay IC50 ATPase BSA-TCEP
Reported log10 IC50 values for a set of compounds
Observable: log10 IC50 (log10 of the value in µM)

Mol Smiles | log10 IC50
CCOC(=O)/C(O)=C/C(=O)/C=C/c1cn(-c2ccc(C)cc2)c2ccccc12 | 0.94
CCOC(=O)/C(O)=C/C(=O)c1cn(-c2ccc(F)cc2)c2ccccc12 | 1.21
CCOC(=O)/C(O)=C/C(=O)c1cn(-c2ccc(C)cc2)c2ccccc12 | 1.27
CCOC(=O)/C(O)=C/C(=O)/C=C/c1cn(-c2ccc(Cl)cc2)c2ccccc12 | 0.53
CCOC(=O)/C(O)=C/C(=O)/C=C/c1cn(-c2ccc(OC)cc2)c2ccccc12 | 1.02
CCOC(=O)/C(O)=C/C(=O)/C=C/c1cn(-c2ccc(C(F)(F)F)cc2)c2ccccc12 | 0.08

---

# Study Target: SARS-CoV-2 nsp13 (Severe acute respiratory syndrome coronavirus 2)
# Test Name: Mode-of-action assay (incubation-dependent potency, covalent/noncovalent)
# Format: biochemical
# Particulars: 5 min after the activation of the reaction; read-out: IC50 at time-point
pIC50: −log10 of the molar value.
Observable: pIC50

Mol Smiles | Readout Number
CCOC(=O)/C(O)=C/C(=O)/C=C/c1cn(-c2ccc(C(F)(F)F)cc2)c2ccccc12 | 6.32

---

# Study Target: SARS-CoV-2 nsp13 (Severe acute respiratory syndrome coronavirus 2)
# Test Name: SARS-CoV-2 nsp13 unwinding-associated activity assay
# Format: biochemical
# Particulars: SARS-CoV-2 nsp13-associated unwinding activity; means ± SD from two experiments in triplicate; read-out: Activity in enzyme assay IC50 Unwinding BSA-TCEP
pIC50: −log10 of the molar value.
Observable: pIC50

Compound | Study Target | Comparator | Readout Number
COc1ccc(-n2cc(/C=C/C(=O)/C=C(\O)C(=O)O)c3ccccc32)cc1 [Compound 5a] | SARS-CoV-2 nsp13 (Severe acute respiratory syndrome coronavirus 2) | = | 5.55
CCOC(=O)/C(O)=C/C(=O)/C=C/c1cn(-c2ccc(C)cc2)c2ccccc12 [Compound 6b] | SARS-CoV-2 nsp13 (Severe acute respiratory syndrome coronavirus 2) | = | 4.86
CCOC(=O)/C(O)=C/C(=O)c1cn(-c2ccc(F)cc2)c2ccccc12 [Compound 8e] | SARS-CoV-2 nsp13 (Severe acute respiratory syndrome coronavirus 2) | = | 4.89
COc1ccc(-n2cc(C(=O)/C=C(\O)C(=O)O)c3ccccc32)cc1 [Compound 7a] | SARS-CoV-2 nsp13 (Severe acute respiratory syndrome coronavirus 2) | < | 4.52
O=C(/C=C(\O)C(=O)O)/C=C/c1cn(-c2ccccc2)c2ccccc12 [Compound 5d] | SARS-CoV-2 nsp13 (Severe acute respiratory syndrome coronavirus 2) | = | 4.93
O=C(O)/C(O)=C/C(=O)c1cn(-c2ccccc2)c2ccccc12 [Compound 7d] | SARS-CoV-2 nsp13 (Severe acute respiratory syndrome coronavirus 2) | < | 4.52
CCOC(=O)/C(O)=C/C(=O)c1cn(-c2ccc(OC)cc2)c2ccccc12 [Compound 8a] | SARS-CoV-2 nsp13 (Severe acute respiratory syndrome coronavirus 2) | = | 4.72
CCOC(=O)/C(O)=C/C(=O)/C=C/c1cn(-c2ccc(C(F)(F)F)cc2)c2ccccc12 [Compound 6h] | SARS-CoV-2 nsp13 (Severe acute respiratory syndrome coronavirus 2) | = | 5.51
CC(C)c1ccc(-n2cc(/C=C/C(=O)/C=C(\O)C(=O)O)c3ccccc32)cc1 [Compound 5c] | SARS-CoV-2 nsp13 (Severe acute respiratory syndrome coronavirus 2) | = | 6.59
CCOC(=O)/C(O)=C/C(=O)/C=C/c1cn(-c2ccc(Cl)cc2)c2ccccc12 [Compound 6f] | SARS-CoV-2 nsp13 (Severe acute respiratory syndrome coronavirus 2) | = | 5.69
CCOC(=O)/C(O)=C/C(=O)c1cn(-c2ccc(C)cc2)c2ccccc12 [Compound 8b] | SARS-CoV-2 nsp13 (Severe acute respiratory syndrome coronavirus 2) | = | 4.76
CCOC(=O)/C(O)=C/C(=O)/C=C/c1cn(-c2ccc(C(C)C)cc2)c2ccccc12 [Compound 6c] | SARS-CoV-2 nsp13 (Severe acute respiratory syndrome coronavirus 2) | = | 5.38
N#Cc1ccc(-n2cc(/C=C/C(=O)/C=C(\O)C(=O)O)c3ccccc32)cc1 [Compound 5g] | SARS-CoV-2 nsp13 (Severe acute respiratory syndrome coronavirus 2) | = | 5.00
CCOC(=O)/C(O)=C/C(=O)/C=C/c1cn(-c2ccccc2)c2ccccc12 [Compound 6d] | SARS-CoV-2 nsp13 (Severe acute respiratory syndrome coronavirus 2) | = | 5.42
O=C(/C=C(\O)C(=O)O)/C=C/c1cn(-c2ccc(Cl)cc2)c2ccccc12 [Compound 5f] | SARS-CoV-2 nsp13 (Severe acute respiratory syndrome coronavirus 2) | = | 5.58
CCOC(=O)/C(O)=C/C(=O)c1cn(-c2ccccc2)c2ccccc12 [Compound 8d] | SARS-CoV-2 nsp13 (Severe acute respiratory syndrome coronavirus 2) | = | 4.87
